experiment: Oral bioavailability in rat at 5 mg/kg; assay type: ADME, organism-based; settings: in vivo
Attribute Measured: bioavailability (%)
// note: answer is a bare numeric in %

Request: # query: bioavailability of entry "O=C(NCCN1CCC(n2c(=O)[nH]c3ccccc32)CC1)c1cc2cc(F)ccc2[nH]1"
Result: 18.5

====

Quick record of pIC50 values for Phospholipase D2 (Homo sapiens, UniProt O14939).
Scale: pIC50 equals -log10([C]), with [C] in mol/L.

Worked examples follow.
# Query Smiles, pIC50
measured = [
    ("O=C(NCCN1CCC(n2c(=O)[nH]c3ccccc32)CC1)c1cc2cc(F)ccc2[nH]1", 7.70),
    ("O=C(NCCN1CCC(n2c(=O)[nH]c3ccccc32)CC1)c1ccsc1", 6.00),
    ("O=C(NCCN1CCC(n2c(=O)[nH]c3ccccc32)CC1)c1ccc(F)cc1", 5.85),
    ("O=C(NCCN1CCC(n2c(=O)[nH]c3ccccc32)CC1)c1cc2ccccc2[nH]1", 7.70),
    ("O=C(NCCN1CCC(n2c(=O)[nH]c3ccccc32)CC1)c1cc2ccccc2s1", 5.70),
]

Request: # query: pIC50 of entry "O=C(NCCN1CCC(n2c(=O)[nH]c3ccccc32)CC1)c1ccccc1"
Result: 5.82

====

assay: Cmax in rat at 5 mg/kg, po or 1 mg/kg, iv; format: ADME, organism-based; conditions: in vivo
Attribute Measured: Cmax (nM)
// note: answer is a bare numeric in nM

Request: # query: Cmax of entry "O=C(NCCN1CCC(n2c(=O)[nH]c3ccccc32)CC1)c1cc2cc(F)ccc2[nH]1"
Result: 363

====

test: Half life in rat at 5 mg/kg, po or 1 mg/kg, iv; type: ADME, organism-based; conditions: in vivo
Attribute Measured: half-life (h)
// note: answer is a bare numeric in h

Request: # query: half-life of entry "O=C(NCCN1CCC(n2c(=O)[nH]c3ccccc32)CC1)c1cc2cc(F)ccc2[nH]1"
Result: 5.57

====

assay: Clearance in rat at 5 mg/kg, po or 1 mg/kg, iv; type: ADME, organism-based; settings: in vivo
Attribute Measured: clearance

Request: # query: clearance of entry "O=C(NCCN1CCC(n2c(=O)[nH]c3ccccc32)CC1)c1cc2cc(F)ccc2[nH]1"
Result: 36.3 mL/min/kg
